Origin of values: patent US4804665A

# Test system: mice
# method-notes: General Symptoms (Side Effects) in mice
# Format: in vivo
# Design: key: +++: marked; ++: moderate; +: mild; -: nondetected
# condition-info: i.p., observed for 4 hours, peripheral effect
# Method: General Symptoms (Side Effects) Four mice were used for each group. Mice were placed in stainless steel cages (13×18×25 cm) and after a 1-hr habitation period the compounds were administered. […] Peripheral and central effects of the compounds were estimated with the incidences of diarrhea, salivation and mydriasis and with the incidences of tremor and sedation and a grade of hypothermia, respectively. […]
readout-type: Mydriasis

> print(dat)
                                   molecule  readout.type  meas.value
1      CON1C(=O)CC2(CCN(C(=O)OCCBr)CC2)C1=O     Mydriasis           +
2  CCN1C(=O)CC2(CCN(C)CC2)C1=O [RS-86, reference compound]     Mydriasis          ++
3                  CON1C(=O)CC2(CCNCC2)C1=O     Mydriasis           -
4            CON1C(=O)CC2(CCN(C)CC2)C1=O.Cl     Mydriasis           -
